System: Intestine IEC-6 cells
Procedure Text: Cell growth inhibition, non-tumorigenic IEC-6
Assay type: cell-based
Condition Context: Rattus norvegicus, maximum 25 µM, quadruplicate
pIC50: −log10 of the molar value.
Reported pIC50 values for the following molecules.

| Molecule | pIC50 |
| --- | --- |
| O=C1Nc2ccc(Cl)cc2C1=NN=Cc1ccn[nH]1 | 5.06 |
| O=C1Nc2ccc(Cl)cc2C1=NNc1nc(-c2ccccc2)cs1 [Compound 10e] | 5.05 |

* * *

Test system: lung cancer A-549 cell line
Procedure Text: CellTiter-Glo Luminescent cell viability assay, anti-proliferative activity, A-549
Type: cell-based, human
Condition Context: Homo sapiens, A549, selectivity assay, maximum 25 µM, quadruplicate; read-out: IC50 NSCLC A-549
Reported IC50 values for the following molecules.

| Molecule | IC50 (µM) |
| --- | --- |
| CCN(CC)CCNC(=O)c1c(C)[nH]c(/C=C2\C(=O)Nc3ccc(F)cc32)c1C [Sunitinib, reference compound] | 3.06 |
| O=C1Nc2ccc(Cl)cc2C1=NN=Cc1ccn[nH]1 [Compound 7b] | 3.84 |
| O=C1Nc2ccc(Cl)cc2C1=NNc1nc(-c2ccccc2)cs1 [Compound 10e] | 4.13 |

* * *

Test system: breast cancer ZR-75 cell line
Procedure Text: CellTiter-Glo Luminescent cell viability assay, anti-proliferative activity, ZR-75
Type: cell-based, human
Condition Context: Homo sapiens, ZR75, mean ± SD of four separate experiments
Reported IC50 values for the following compounds.

| Compound | Assayed Target | Value Units | Value Prefix | IC50 |
| --- | --- | --- | --- | --- |
| Cc1ccc(-c2csc(NN=C3C(=O)Nc4ccc(Cl)cc43)n2)cc1 [Compound 10f] | breast cancer ZR-75 cell line | µM | = | 23.4 |
| Cc1csc(C=NN=C2C(=O)Nc3ccc(Cl)cc32)n1 | breast cancer ZR-75 cell line | µM | = | 1.16 |
| COC(=O)c1ccc(C=NN=C2C(=O)Nc3ccc(Br)cc32)cc1 | breast cancer ZR-75 cell line | µM | = | 23.3 |
| O=C1Nc2ccc(Cl)cc2C1=NNc1nc(-c2ccccc2)cs1 [Compound 10e] | breast cancer ZR-75 cell line | µM | = | 1.95 |
| O=C1Nc2ccc(Br)cc2C1=NNc1nc(-c2ccccc2)cs1 [Compound 10i] | breast cancer ZR-75 cell line | µM | = | 1.96 |
| Cc1ccc(-c2csc(NN=C3C(=O)Nc4ccc(Br)cc43)n2)cc1 [Compound 10j] | breast cancer ZR-75 cell line | µM | = | 10.9 |
| O=C1Nc2ccccc2C1=NN=Cc1ccn[nH]1 | breast cancer ZR-75 cell line | µM | > | 30 |
| O=C1Nc2ccc(Cl)cc2C1=NNc1nc(-c2ccc(Cl)cc2)cs1 [Compound 10g] | breast cancer ZR-75 cell line | µM | = | 1.87 |
| CC(=O)c1ccc(C=NN=C2C(=O)Nc3ccc(Br)cc32)cc1 | breast cancer ZR-75 cell line | µM | > | 30 |

* * *

System: A-549 cells
Procedure Text: Reduction in total cell number, DAPI labeling and imaging cytometry
Type: cell-based
Condition Context: Homo sapiens, A549; A-549, 48 h treatment; read-out: IC50 for reductions in the total cell number, 48 h
Experimental: Cell cycle effects of the synthesised compounds 7b and 10e were determined adopting the reported procedures[14]^,[15]. In this study, cancer cells derived from lung adenocarcinoma (A-549) were used to evaluate the effects of compounds 7b and 10e on various aspects of the cell cycle progression. […]
Outcome Measure: IC50

| Molecule | Readout Value |
| --- | --- |
| O=C1Nc2ccc(Cl)cc2C1=NNc1nc(-c2ccccc2)cs1 [Compound 10e] | 7.27 µM |
| O=C1Nc2ccc(Cl)cc2C1=NN=Cc1ccn[nH]1 [Compound 7b] | 8.08 µM |
